Ref: ChEMBL document CHEMBL1201862

Test system: HOP-62
Assay: NCI tumour cell line growth inhibition, 48 h
Calls of active or inactive are those of the source. Rule as the data show it: active = GI50 up to about 1.1 µM and inactive = higher.
// classify into 1 (yes) (active), 0 (no) (inactive)

See these solved cases before continuing.
O=c1c2ccccc2nc2[nH][nH]c(=S)n12; 0 (no)
Cn1c2ccccc2n2c3ncccc3c(=O)cc12; 0 (no)
Brc1ccccc1-c1ncc(-c2ccccc2)o1; 0 (no)
NC(=O)N/N=C\CC(O)(C(F)(F)Cl)C(F)(F)Cl; 0 (no)

// next entry
Ask: Which result was noted for this compound in the test: `O=c1c(=O)c2cscc2c1=O`
Result: 0 (no)

====

System: NCI-H460
Experiment: NCI tumour cell line growth inhibition, 48 h
The source made the active and inactive calls. No stated cut-off is given here; in the data, active = GI50 up to about 1.1 µM and inactive = higher.
Exercise: for every item that follows, state its recorded GI50.

CCOC(=O)C(NC(=O)c1ccccc1)(N1CCN(c2cc3c(cc2F)c(=O)c(C(=O)O)cn3CC)CC1)C(F)(F)F (stereo not drawn); 32.1 µM (inactive)
OCCC1(O)CCC(O)CC1 (stereo not drawn); > 100 µM (inactive)
COc1ccc(C(CC(=O)C(C)(C)CN2CCCCC2)SCCS(=O)(=O)O)cc1 (stereo not drawn); 22.6 µM (inactive)
CCOc1ccc2nc(NC(=O)/C(CC(=O)CC(C3=C(O)c4ccccc4CC3=O)c3ccccc3)=N\O)sc2c1 (stereo not drawn); > 100 µM (inactive)

Quick request: GI50 for each listed item, please.
1. O=c1c2ccccc2nc2[nH][nH]c(=S)n12
2. O=c1c2ccccc2c(=O)n2n1-c1cccc(c1)CSSCc1cccc-2c1

Result:
1. > 100 µM (inactive)
2. > 10 µM (inactive)
